src = the supplement of paper PMC9170038

# Tested on: MS2 coat protein
# protocolNotes: apparent KD of MS2 coat protein; designed switch direction (-1 OFF switch, 1 ON switch): -1; higher = weaker reporter binding
# appliedConditions: Eterna round: R95; input ligand: microRNA oligo, concentration not stated
experimentalReadout: apparent KD of MS2 coat protein (nM)
Answers are plain numbers, in nM.

{"columns": ["residueSequence", "unitString", "dataValue"],
 "data": [
  ["AGAUCACAUGAGGAUCACCCAUGUGAGGAUAUGAUACUAUGUACUUCGGUACAUAGUAUCAGAAGGCGCGUGAA [Ex1-3: 72] (puzzle: Exclusion 1)", "nM", 28.5],
  ["AAUACUAACACGAAAGUGUUAGUAAAAUAAGCUUGUGGUACAUGAGGAUCACCCAUGUCCUCAUAAGCUCGUCUUAU [Mat - Sensor v3 - Turn-off var 2 - D43] (puzzle: Sensor v3, turn-off variant 2)", "nM", 75.4],
  ["GGGCAGUCAGGAUAUACAUGAGGAUCACCCAUGUUGAGAUGUGAAAGGGCGGGAGUAGGUAGAAGGGACGAGAG [JR_Exclu3_Sub041] (puzzle: Exclusion 3)", "nM", 22.8],
  ["GGUGCGUGUGUGAGGAUAUGCUGGUCCUUGGAUCAGCAGAAGGCACAUGAGGAUCACCCAUGUGGUGUCGUACC [salish99_Bmod_Ex4_029] (puzzle: Brourd's mod of Exclusion 4)", "nM", 232],
  ["CCAGCGUAUGUGAGGAUAUGCUGGUCCUUGGAUCAGCAGAAGGCACAUGAGGAUCACCCAUGUGGUGACGUUGG [JL bmx4 3.44] (puzzle: Brourd's mod of Exclusion 4)", "nM", 143]
]}

Hi team, please reply with apparent KD of MS2 coat protein for each item in this list.
1. AAAUUACAAGCAAGAUCCUACAUGAGGAUCACCCAUGUGCUCGUCUUAUAAAGUACUAUCACGAAAGUGAUAGUACA [Mat - Sensor v3 - turn-off var 1 - Eli Mod - D58] (puzzle: Sensor v3, turn-off variant 1)
2. GACUGGACGUGGUCUGGUAACAUGAGGAUCACCCAUGUAGGUCUAAGAACAUGCCUUUUGCACGCUCGUCUUAUAUA [JR_SV3TOV1_Sub064] (puzzle: Sensor v3, turn-off variant 1)

1: 304; 2: 34.8

Hi team, please reply with apparent KD of MS2 coat protein for each item in this list.
1. AUAAAGUCAGGAUAUCGAAGUGAGUGGAGAGGAGGGAGGUACGAGAAGGGACAUGAGGAUCACCCAUGUAGGAA [JR_Exclusion4)Sub006] (puzzle: Exclusion 4)
2. GGUGGACAUGAGGAUCACCCAUGUGAGGAUAUCGGCUAUCUUCUCGCUGUCGGUUGCUCGAGAAGGCACAUUGU [Exclusion 1 V94] (puzzle: Exclusion 1)
3. ACAAGCUUUUUGCUCGUCUACAUGAGGAUCACCCAUGUAGUGUGUUAGUGGUGAAGAUAGAUUGAGCGUAGUAGGUA [JR_SV3TOV1_Sub072] (puzzle: Sensor v3, turn-off variant 1)

1: 24.2; 2: 52.2; 3: 79.5

====

# Tested on: K4 kissing-loop RNA reporter;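 further: bound reporter read as fluorescence of individual clusters on recovered sequencing chips by microscopy, with normalized cluster intensities fitted with a binding model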
# protocolNotes: apparent KD of K4 kissing-loop reporter; higher = weaker reporter binding
# appliedConditions: Eterna round: R107; input ligand: arginine 13.2 mM
experimentalReadout: apparent KD of K4 kissing-loop reporter (µM)
Give bare numbers, in µM.

Known apparent KD of K4 kissing-loop reporter results, listed for orientation:
{"columns": ["residueSequence", "dataValue"],
 "data": [
  ["GGUAGCAUGGCGGCCGCCACUAAGAGAGUGAUGUUCUCUUAGUUUUUUGAUAUAUUAUCAAUUCUUAGGACCGGGCCAUGCUACC", 0.0799],
  ["AAUAAAAUCACGGCCGCCACUGAUUACCAUAUUAGGAGUGAUGUUCCUAUGACUAUAUAAUUUAACAGGACCGGGUGAAUAUUUA [JR_ExcTryptoB_Sub011]", 0.103],
  ["UUAAUAAUUCAAGGAUAUGUUUUCUAUUUCGAGUGAUGUUCGGAAUUAAUAAAUUUAAAAGAUUAUACAGAAGGUGAUAAAUAGU [Cynwulf-mod#2]", 0.0929],
  ["UGUGAUGUUGUGAUGUUUAGUGUUGUUGGGCAGGAUAUUGUAGAGGCGAGAAGGGCUAGUGUGAUGUAUGAGUGAUGUUUGUAGU [kkollmullin]", 0.111],
  ["UUAGAGAUCUCAGGAUAUCAGUGAUGUUGUAAUCCAGAUCUGAGAUAGAAUUCUAUCUCAGAUCAAUGAGAAGGGAGAUCUCAUU [AK4.2 Exc FMN B]", 0.601],
  ["CGUGCCCAGCCGGAUACCAGUGACCCGCUGGGAACCGCGGGCCCAGAGUGAUGUUCGGGACACCCUUGGCAGCCGCCUGGGCGGC [#2 Same State - Theophylline B Attempt #12 (HarryS)]", 0.724],
  ["GGACUACUAUGUCCCAUACAAACAAGAGAUACCAGCCAUCAUAGAGGCCCUUGGCAGCUCAUAUAAUCCAGUGAUGUUGGAUUUC [Beveus]", 0.193],
  ["UUUUAAUAAAAGGAUACCAGUACAAAUAAAGUACAUUAAUAGUAGAGUGAUGUUCUAAAGUACCCUUGGCAGCUUAGAGUAAGUU [#17 K4 Theophylline B Exclusion]", 0.253]
]}

Hi team, please reply with apparent KD of K4 kissing-loop reporter for each item in this list.
1. UAAUUUAUGUCUUUAAUUUUAUAAUCAGAUACCAGUGAUUUAUGACACCCUUGGCAGCUGUAUUGAGUGAUGUUCUUAUACUUAA [JR_Nu_ExcTheophyA_Sub022]
2. AACUGUCAAGGCCAACAUUACUGAGGUGAUACCAGCAUCGAAAGAUGCCCUUGGCAGCACCAACUUGCAGUGAUGUUGCAAGUAA [BrourdMod 13 - Jieux - Exclusion - Theophylline A]
3. CGAUGUUCCUGGGAUACCAGUCGGAGUCUCAGAGCUCGGAGUGAUGUUCUGGGAUGUUUCGGCCCUUGGCAGCUCUGGGACUCCC [#2 Exclusion - Theophylline B Attempt #23 (HarryS)]

1: 0.167; 2: 0.203; 3: 0.615
